The reported numbers originate from patent US11084826B2.

testProtocol: Cytotoxicity in HeLa cells, ATP content measured with the ATPlite kit
Type: cell-based
assayContext: human, TOX HELA pCC50
Protocol: Black 384-well clear-bottom microtiter plates (Corning, Amsterdam, The Netherlands) were filled via acoustic drop ejection using the echo liquid handler (Labcyte, Sunnyvale, Calif.). 200 nL of compound stock solutions (100% DMSO) were transferred to the assay plates. […] Three days post-virus exposure, viral replication was quantified by measuring GFP expression in the cells by an in house developed MSM laser microscope (Tibotec, Beerse, Belgium). […]
parameter: CC50 at 3 days

Example cases with answers are listed next.
CCc1cc(C(=O)N2CCCCCC2C)nc2nc(-c3ccc(NC(=O)C4CC4)cc3F)nn12 (stereo not shown) : > 100 µM
C[C@@H]1CCCCCN1C(=O)c1cc(C2CCC2)n2nc(-c3ccc(-n4cc(C(=O)O)cn4)cc3F)cc2n1 : 51.3 µM
C[C@@H]1CCCCCN1C(=O)c1cc(N(C)C)n2nc(-c3ncc(/C=C/C(=O)O)cc3Cl)cc2n1 : > 25.1 µM
CC(C)Cc1cc(C(=O)N2CCCCC[C@H]2C)nc2cc(-c3cccc(/C=C/C(=O)O)c3F)nn12 : 67.6 µM
CCc1cc(C(=O)N2CCCCCC2C)nc2cc(-c3cc(NC(=O)C4CC4)ccc3F)nn12 (stereo not shown) : 60.3 µM

Dear colleague, could you send me CC50 at 3 days for each of the items below? Thanks.
1. CCc1cc(C(=O)N2CCCCC[C@H]2C)nc2cc(-c3ccc(C#N)cc3F)nn12
2. CCc1cc(C(=O)N2CCCCC[C@H]2C)nc2cc(-c3ccc(-c4ccc(C(=O)O)nc4)cc3F)nn12

(A)
["> 25.1 µM", "12.6 µM"]

----------
So I've got a bunch of molecules here, and I need their melting point values.
Numbers only, in °C.

C[C@@H]1c2ccsc2CCN1C(=O)c1cc(C2(C)CC2)n2nc(-c3ccc([C@@H]4C[C@H]4C(=O)O)cc3F)cc2n1 : 207.61
CCc1cc(C(=O)N2CCc3sccc3C2C)nc2cc(-c3ccc(N4CC[C@H](C(=O)O)C4)cc3F)nn12 (single isomer, unassigned) : 252.56
C[C@@H]1CCCCCN1C(=O)c1cc(C2CCC2)n2nc(-c3ccc4cc(C(=O)O)c(=O)oc4c3F)cc2n1 (racemic) : 175.52

Dear colleague, could you send me melting point for each of the items below? Thanks.
1. CCc1cc(C(=O)N2CCc3sccc3C2C)nc2cc(-c3ccc(-c4ccc(C(=O)O)cn4)cc3F)nn12 (racemic)
2. CCc1cc(C(=O)N2CCCCC[C@H]2C)nc2cc(-c3ccc(N4CC[C@@](C)(C(=O)O)C4)cc3F)nn12
3. CCc1cc(C(=O)N2CCCC3(CC=CC3)C2C)nc2cc(-c3ccc(/C=C/C(=O)O)cc3F)nn12 (racemic)
4. CCc1cc(C(=O)N2CCc3sccc3C2C)nc2cc(-c3ccc(C4C[C@H]4C(=O)O)cc3F)nn12 (single isomer, unassigned)
5. CCc1cc(C(=O)N2CCCCCC2C)nc2cc(-c3ccc(S(N)(=O)=O)cc3F)nn12 (stereo not shown) [Compound P2]
6. CC1c2ccsc2CCN1C(=O)c1cc(C2CC2)n2nc(-c3ccc(-n4cc(C(=O)O)cn4)cc3F)cc2n1 (stereo not shown)
7. CCc1cc(C(=O)N2CCCCCC2C)nc2cc(-c3ccc(C(=O)NCCO)cc3F)nn12 (stereo not shown)
8. CC1c2ccsc2CCN1C(=O)c1cc(C2CC2)n2nc(-c3ccc(C4C[C@H]4C(=O)O)cc3F)cc2n1 (single isomer, unassigned)

(A)
1. 270.54
2. 110.2
3. 206.72
4. 228.98
5. 229
6. 257.83
7. 177
8. 252.97

----------
testProtocol: Cytotoxicity in HeLa cells, ATP content measured with the ATPlite kit
Assay type: cell-based
assayContext: human, TOX HELA pCC50
Label Y when CC50 at 3 days is strictly below 60 µM; at or above that, label N.

Look over these answered cases.
CC1CCCCCN1C(=O)c1cc(N2CCCC2)n2nc(-c3ccc(NC(=O)NCC4CCCO4)cc3)cc2n1 (centres unmarked) : N
C[C@@H]1c2ccccc2CCN1C(=O)c1cc(C2CC2)n2nc(-c3ccc(-n4cc(C(=O)O)cn4)cc3F)cc2n1 : Y
CCc1cc(C(=O)N2CCCCC[C@H]2C)nc2cc(-c3ccc(N4CCC[C@H](C(=O)O)C4)cc3F)nn12 : N
CCc1cc(C(=O)N2CCCCC[C@H]2C)nc2cc(-c3ccc(N(C)c4ccc(C(=O)O)cn4)cc3F)nn12 (racemic) : N
CCc1cc(C(=O)N2CCc3ccccc3C2C)nc2cc(-c3ccc(-c4ccc(C(=O)O)nc4)cc3F)nn12 (centres unmarked) : Y

(Q) Is CC50 at 3 days of `CCc1cc(C(=O)N2CCCCC[C@H]2C)nc2cc(-c3ccc(N4C[C@@H]5CC(C(=O)O)=C[C@@H]5C4)cc3F)nn12` strictly below 60 µM?
(A) N

(Q) Is CC50 at 3 days of `CCc1cc(C(=O)N2CCCCC[C@H]2C)nc2cc(-c3ccc(-n4cnc(C(=O)O)c4)cc3F)nn12` strictly below 60 µM?
(A) N

(Q) Is CC50 at 3 days of CCc1cc(C(=O)N2CCCCCC2C)nc2cc(-c3ccc(NS(C)(=O)=O)cc3F)nn12 (centres unmarked) [Compound D1] strictly below 60 µM?
(A) Y

----------
testProtocol: Cytotoxicity in HeLa cells, ATP content measured with the ATPlite kit
Assay type: cell-based
assayContext: human, TOX HELA pCC50
Protocol: Black 384-well clear-bottom microtiter plates (Corning, Amsterdam, The Netherlands) were filled via acoustic drop ejection using the echo liquid handler (Labcyte, Sunnyvale, Calif.). 200 nL of compound stock solutions (100% DMSO) were transferred to the assay plates. […] Three days post-virus exposure, viral replication was quantified by measuring GFP expression in the cells by an in house developed MSM laser microscope (Tibotec, Beerse, Belgium). […]
parameter: CC50 at 3 days

CCc1cc(C(=O)N2CCCCC[C@H]2C)nc2cc(-c3cc4ccc(C(=O)O)nc4cc3F)nn12 : 66.1 µM
CCc1cc(C(=O)N2CCc3ccccc3[C@H]2C)nc2cc(-c3ccc(/C=C/C(=O)O)cc3F)nn12 : > 20.4 µM
CCc1cc(C(=O)N2CCCCC[C@H]2C)nc2cc(-c3ccc(C4[C@@H](C(=O)O)C4(F)F)cc3F)nn12 (mixture of isomers) : 53.7 µM
CCc1cc(C(=O)N2CCCCC[C@H]2C)nc2cc(-c3ccc(N4CCC(CO)(C(=O)O)C4)cc3F)nn12 (stereo partly drawn) : > 100 µM

Dear colleague, could you send me CC50 at 3 days for each of the items below? Thanks.
1. CC1CCCCCN1C(=O)c1cc(N(C)C)n2nc(-c3ccc(C(N)=O)cc3F)cc2n1 (stereo not drawn)
2. CCc1cc(C(=O)N2CCCCCC2C)nc2cc(-c3ccc(NC(=S)NC4CC4)cc3F)nn12 (stereo not drawn)
3. CCc1cc(C(=O)N2CCn3cccc3C2C)nc2cc(-c3ccc(C(=O)O)cc3F)nn12 (stereo not drawn)
4. CCc1cc(C(=O)N2CCCCCC2C)nc2cc(-c3c(F)cc(C(N)=O)cc3F)nn12 (stereo not drawn)
5. CCc1cc(C(=O)N2CCCCCC2C)nc2cc(-c3ccc(CO)cc3)nn12 (stereo not drawn)
6. CCc1cc(C(=O)N2CCC3=C(CCCC3)C2C)nc2cc(-c3cccc(/C=C/C(=O)O)c3F)nn12 (racemic)
7. CCc1cc(C(=O)N2CCCCC[C@H]2C)nc2cc(-c3ccc(N4CC[C@@](C)(C(=O)O)C4)cc3F)nn12

(A)
> 25.1 µM
> 25.1 µM
> 25.1 µM
> 25.1 µM
> 100 µM
66.1 µM
74.1 µM

Dear colleague, could you send me CC50 at 3 days for each of the items below? Thanks.
1. CCc1cc(C(=O)N2CCCCCC2C)nc2cc(-c3ccc(NC(=O)Nc4cccc(F)c4)cc3)nn12 (stereo not drawn)
2. CCc1cc(C(=O)N2CCCCCC2C)nc2cc(-c3ccc(C(=O)NCCN(C)C)cc3F)nn12 (stereo not drawn)

(A)
1. > 100 µM
2. > 25.1 µM

Dear colleague, could you send me CC50 at 3 days for each of the items below? Thanks.
1. CCc1cc(C(=O)N2CCCCCC2C)nc2c(F)c(-c3ccc(C(N)=O)cc3)nn12 (stereo not drawn)
2. CC1CCCCCN1C(=O)c1cc(N(C)C)n2nc(-c3ccc(C#N)cc3F)cc2n1 (stereo not drawn)

(A)
["> 25.1 µM", "> 25.1 µM"]

----------
parameter: melting point (°C)
Numbers only, in °C.

Example cases with answers are listed next.
CCc1cc(C(=O)N2CCCCCC2C)nc2cc(-c3ccc(S(=O)(=O)NC)cc3F)nn12 (stereo not shown) : 116
C[C@@H]1CCCCCN1C(=O)c1cc(-c2cnn(C)c2)n2nc(-c3ccc(/C=C/C(=O)O)cc3F)cc2n1 : 163

Now turn to the next compound.
(Q) State the recorded melting point for this entry: `CCc1cc(C(=O)N2CCCCC[C@H]2C)nc2cc(-c3ccc(N4CC[C@@H](C(=O)O)C4)cc3F)nn12`
(A) 214.84
